- Species: Rattus norvegicus
- Procedure Details: Open TG-GATES - Regimen: Daily Repeat
- Type: toxicity, organism-based, Sprague-Dawley
- Set-up: regimen Daily Repeat, gender Male, age 6 weeks
- Study Conditions: in vivo, po, 0 mg/kg, […], tissue Plasma, route gavage, dose level Control, time 14 day
Each entry below carries its reported ALT.
Reported Metric: ALT (IU/L)

Compound: CCCNC(=O)NS(=O)(=O)c1ccc(Cl)cc1 [CHLORPROPAMIDE]
Data Value: 44.6
//
Compound: CCOC(=O)CCC(=O)O[C@H]1[C@H](O[C@@H]2[C@@H](C)[C@H](O[C@H]3C[C@@](C)(OC)[C@@H](O)[C@H](C)O3)[C@@H](C)C(=O)O[C@H](CC)[C@@](C)(O)[C@H](O)[C@@H](C)C(=O)[C@H](C)C[C@@]2(C)O)O[C@H](C)C[C@@H]1N(C)C [ERYTHROMYCIN ETHYLSUCCINATE]
Data Value: 46.6
//
Compound: O=C(CCCN1CCC(O)(c2ccc(Cl)cc2)CC1)c1ccc(F)cc1
Data Value: 32.6
//
Compound: CC1=C(/C=C/C(C)=C/C=C/C(C)=C/CO)C(C)(C)CCC1
Data Value: 34.6
//
Compound: CN1C(=O)CN=C(c2ccccc2)c2cc(Cl)ccc21
Data Value: 37.4
//
Compound: NC(N)=Nc1nc(CSCCC(N)=NS(N)(=O)=O)cs1
Data Value: 33.4
//
Compound: CN(C)CCN(Cc1cccs1)c1ccccn1
Data Value: 39.6
//
Compound: NNC(=O)c1ccncc1
Data Value: 29.6
//
Compound: CCOc1ccc(NC(=O)CC(C)O)cc1 (stereo unspecified)
Data Value: 33
//
Compound: CC(C)OC(=O)C(C)(C)Oc1ccc(C(=O)c2ccc(Cl)cc2)cc1 [FENOFIBRATE]
Data Value: 40.8
//
Compound: COC1=CC(=O)C[C@@H](C)[C@]12Oc1c(Cl)c(OC)cc(OC)c1C2=O
Data Value: 32.8

Data provenance: ChEMBL document CHEMBL3885861
